Target Desc: T1, RBD derived from SARS-CoV-2 (Wuhan strain) (SARS-CoV-2 (Wuhan strain), UniProt P0DTC2 319-541)
T1 construct: domain: RBD
Procedure Text: RBD beads, antibody 4 µg/mL, then labelled ACE2, flow cytometry
Value Kind: fluorescence of ACE2 protein
Write the value as a bare number.

| Binder | fluorescence of ACE2 protein |
| --- | --- |
| Ab326 (antibody, V domains shown) VH: EVQLVESGGGVVQPGRSLRLSCAASGFTFSHYPMHWVRQAPGRGLEWVAVISYDGSNQHYVDSVKGRFTISRDNSKNTLYLQMNSLRAEDTAVYFCASLITMIRGVPDYWGQGTLVTVSS VL: DIQMTQSPSSLSASVGDRVTITCRASQSISNYLNWYQQKPGKAPNLLIFAASSLQSGVPSRFSGSGSGTEFTLTISSLQPEDFAAYYCLQTYSTPRTFGQGTRLEIK | 38.4 |
| Ab114 (antibody, V domains shown) VH: EVQLVESGGGLIQPGGSLRLSCAASGFTVSSNYMNWVRQAPGKGLEWVSVIYSGGSTFYADSVKGRFTISRDNSKNTLYLQMNSLRVEDTAVYYCARDLDTQGGMDVWGQGTTVTVSS VL: EIVLTQSPGSLSLSPGERATLSCRASQGVSSSYLAWYQHKPGQAPRLLIFGASTRATGIPDRFSGSGSGTDFTLTISRLEPEDFAVYYCQLYGSSPGTFGQGTKLEIK | 672 |

Now consider a different binder.
Query: Return the recorded fluorescence of ACE2 protein value; entry: Ab445 (antibody, V domains shown) VH: EVQLVESGGGVVQPGTSPRLSCAASGFTFSNSGMHWVRQAPGKGLEWVAVIWYDGSKKYYVDSVKGRFTISRDNSKNTLYLQMNSLRAEDTAVYYCARDGTVAVRGVMNPFFDYWGQGTLVTVSS VL: DIQLTQSPSSLSASVGDRVTITCQASQDISNYLNWYQQIPGKAPKLLIYDASNLETGVPSRFSGSGSGTDFTFTISSLQPEDIATYYCQQYDNLPYTFGQGTKLEIK
Response: 142
